// provenance: paper PMC11285948

test: Pharmacokinetics of ciprofol in rats pretreated with psoralen, clopidogrel or CMC; format: in vivo, rat; details: SD, rat, plasma, Psoralen(27mg/kg)group, ciprofol 2.4 mg·kg^-1 i.v.; rats No.1-8 and Mean; read-out: CLz
reported metric: clearance (mL/min/kg)
// units = mL/min/kg; emit number, no label

Ask | Name the reported clearance value associated with the compound `CC(C)c1cccc([C@H](C)C2CC2)c1O`
Reply | 130

---

assay: Pharmacokinetics of ciprofol in rats pretreated with psoralen, clopidogrel or CMC; format: in vivo, rat; settings: SD, rat, plasma, iv, 27 mg/kg, Psoralen(27mg/kg)group, ciprofol 2.4 mg·kg^-1 i.v., T 30.00 min; rats No.1-8 and Mean
reported metric: concentration at 30 min (ng/mL)
// units = ng/mL; emit number, no label

Ask | Name the reported concentration at 30 min value associated with the compound CC(C)c1cccc([C@H](C)C2CC2)c1O [ciprofol]
Reply | 145

---

assay: Pharmacokinetics of ciprofol in rats pretreated with psoralen, clopidogrel or CMC; format: in vivo, rat; conditions: SD, rat, plasma, iv; Clopidogrel(6.75mg/kg)group, ciprofol 2.4 mg·kg^-1 i.v.; rats No.1-8 and Mean; read-out: Tmax (converted)
reported metric: Tmax (min)
// units = min; emit number, no label

Ask | Name the reported Tmax value associated with the compound `CC(C)c1cccc([C@H](C)C2CC2)c1O`
Reply | 2

---

assay: Pharmacokinetics of ciprofol in rats pretreated with psoralen, clopidogrel or CMC; type: in vivo, rat; details: SD, rat, plasma, iv, 27 mg/kg, Psoralen(27mg/kg)group, ciprofol 2.4 mg·kg^-1 i.v.; rats No.1-8 and Mean; read-out: MRT(0-t) (converted)
reported metric: MRT last (min)
// units = min; emit number, no label

Ask | Name the reported MRT last value associated with the compound `CC(C)c1cccc([C@H](C)C2CC2)c1O`
Reply | 13.6

---

experiment: Pharmacokinetics of ciprofol in rats pretreated with psoralen, clopidogrel or CMC; type: in vivo, rat; conditions: SD, rat, plasma, intravenous, 2.4 mg/kg, rats, Psoralen group (27 mg·kg^-1 gavage daily 7 d), ciprofol 2.4 mg·kg^-1 i.v., n = 8; read-out: t1/2 (converted)
reported metric: half-life (min)
// units = min; emit number, no label

Ask | Name the reported half-life value associated with the molecule `CC(C)c1cccc([C@H](C)C2CC2)c1O`
Reply | 15.6

---

test: Pharmacokinetics of ciprofol in rats pretreated with psoralen, clopidogrel or CMC; assay type: in vivo, rat; details: SD, rat, plasma, iv, 27 mg/kg, Psoralen(27mg/kg)group, ciprofol 2.4 mg·kg^-1 i.v.; rats No.1-8 and Mean; read-out: MRT(0-∞) (converted)
reported metric: MRT inf (min)
// units = min; emit number, no label

Ask | Name the reported MRT inf value associated with the compound CC(C)c1cccc([C@H](C)C2CC2)c1O [ciprofol]
Reply | 17

---

experiment: Pharmacokinetics of ciprofol in rats pretreated with psoralen, clopidogrel or CMC; format: in vivo, rat; settings: SD, rat, plasma, intravenous, 2.4 mg/kg, rats, Clopidogrel group (7.5 mg·kg^-1 gavage daily 7 d), ciprofol 2.4 mg·kg^-1 i.v., n = 8; read-out: CL (converted)
reported metric: clearance (mL/min/kg)
// units = mL/min/kg; emit number, no label

Ask | Name the reported clearance value associated with the molecule `CC(C)c1cccc([C@H](C)C2CC2)c1O`
Reply | 128

---

assay: Pharmacokinetics of ciprofol in rats pretreated with psoralen, clopidogrel or CMC; format: in vivo, rat; details: SD, rat, plasma, intravenous, 2.4 mg/kg, rats, Psoralen group (27 mg·kg^-1 gavage daily 7 d), ciprofol 2.4 mg·kg^-1 i.v., n = 8
reported metric: Cmax (ng/mL)
// units = ng/mL; emit number, no label

Ask | Name the reported Cmax value associated with the compound `CC(C)c1cccc([C@H](C)C2CC2)c1O`
Reply | 1490

---

experiment: Pharmacokinetics of ciprofol in rats pretreated with psoralen, clopidogrel or CMC; assay type: in vivo, rat; settings: SD, rat, plasma, iv, 2.4 mg/kg, Control (CMC-Na), ciprofol 2.4 mg·kg^-1 i.v., T 45.00 min; rats No.1-8 and Mean
reported metric: concentration at 45 min (ng/mL)
// units = ng/mL; emit number, no label

Ask | Name the reported concentration at 45 min value associated with the compound `CC(C)c1cccc([C@H](C)C2CC2)c1O`
Reply | 67.3

---

assay: Pharmacokinetics of ciprofol in rats pretreated with psoralen, clopidogrel or CMC; type: in vivo, rat; details: SD, rat, plasma, intravenous, 2.4 mg/kg, rats, Clopidogrel group (7.5 mg·kg^-1 gavage daily 7 d), ciprofol 2.4 mg·kg^-1 i.v., n = 8; read-out: MRT0-t
reported metric: MRT last

Ask | Name the reported MRT last value associated with the compound `CC(C)c1cccc([C@H](C)C2CC2)c1O`
Reply | 12.6 min

---

test: Pharmacokinetics of ciprofol in rats pretreated with psoralen, clopidogrel or CMC; type: in vivo, rat; conditions: SD, rat, plasma, intravenous, 2.4 mg/kg, rats, Psoralen group (27 mg·kg^-1 gavage daily 7 d), ciprofol 2.4 mg·kg^-1 i.v., n = 8; read-out: CL (converted)
reported metric: clearance (mL/min/kg)
// units = mL/min/kg; emit number, no label

Ask | Name the reported clearance value associated with the molecule `CC(C)c1cccc([C@H](C)C2CC2)c1O`
Reply | 128

---

experiment: Pharmacokinetics of ciprofol in rats pretreated with psoralen, clopidogrel or CMC; assay type: in vivo, rat; conditions: SD, rat, plasma, intravenous, 2.4 mg/kg, rats, Clopidogrel group (7.5 mg·kg^-1 gavage daily 7 d), ciprofol 2.4 mg·kg^-1 i.v., n = 8; read-out: t1/2 (converted)
reported metric: half-life (min)
// units = min; emit number, no label

Ask | Name the reported half-life value associated with the molecule `CC(C)c1cccc([C@H](C)C2CC2)c1O`
Reply | 21

---

test: Pharmacokinetics of ciprofol in rats pretreated with psoralen, clopidogrel or CMC; assay type: in vivo, rat; settings: SD, rat, plasma, intravenous, 2.4 mg/kg, rats, Clopidogrel group (7.5 mg·kg^-1 gavage daily 7 d), ciprofol 2.4 mg·kg^-1 i.v., n = 8; read-out: MRT0-∞
reported metric: MRT inf (min)
// units = min; emit number, no label

Ask | Name the reported MRT inf value associated with the compound `CC(C)c1cccc([C@H](C)C2CC2)c1O`
Reply | 18.6

---

experiment: Pharmacokinetics of ciprofol in rats pretreated with psoralen, clopidogrel or CMC; format: in vivo, rat; settings: SD, rat, plasma, intravenous, 2.4 mg/kg, rats, Psoralen group (27 mg·kg^-1 gavage daily 7 d), ciprofol 2.4 mg·kg^-1 i.v., n = 8; read-out: MRT0-t
reported metric: MRT last
Reply with the number, then its unit.

Ask | Name the reported MRT last value associated with the compound `CC(C)c1cccc([C@H](C)C2CC2)c1O`
Reply | 13.8 min

---

assay: Pharmacokinetics of ciprofol in rats pretreated with psoralen, clopidogrel or CMC; type: in vivo, rat; settings: SD, rat, plasma, iv, 6.75 mg/kg, Clopidogrel(6.75mg/kg)group, ciprofol 2.4 mg·kg^-1 i.v., T 12.00 min; rats No.1-8 and Mean
reported metric: concentration at 12 min (ng/mL)
// units = ng/mL; emit number, no label

Ask | Name the reported concentration at 12 min value associated with the compound `CC(C)c1cccc([C@H](C)C2CC2)c1O`
Reply | 334

---

assay: Pharmacokinetics of ciprofol in rats pretreated with psoralen, clopidogrel or CMC; format: in vivo, rat; details: SD, rat, plasma, iv, 2.4 mg/kg, Control (CMC-Na), ciprofol 2.4 mg·kg^-1 i.v.; rats No.1-8 and Mean
reported metric: Cmax

Ask | Name the reported Cmax value associated with the compound `CC(C)c1cccc([C@H](C)C2CC2)c1O`
Reply | 1550 ng/mL

---

experiment: Pharmacokinetics of ciprofol in rats pretreated with psoralen, clopidogrel or CMC; type: in vivo, rat; conditions: SD, rat, plasma, iv; Psoralen(27mg/kg)group, ciprofol 2.4 mg·kg^-1 i.v.; rats No.1-8 and Mean; read-out: Tmax (converted)
reported metric: Tmax (min)
// units = min; emit number, no label

Ask | Name the reported Tmax value associated with the compound `CC(C)c1cccc([C@H](C)C2CC2)c1O`
Reply | 2

---

experiment: Pharmacokinetics of ciprofol in rats pretreated with psoralen, clopidogrel or CMC; format: in vivo, rat; conditions: SD, rat, plasma, iv, 6.75 mg/kg, Clopidogrel(6.75mg/kg)group, ciprofol 2.4 mg·kg^-1 i.v.; rats No.1-8 and Mean; read-out: CLz
reported metric: clearance
Reply with the number, then its unit.

Ask | Name the reported clearance value associated with the compound CC(C)c1cccc([C@H](C)C2CC2)c1O [ciprofol]
Reply | 130 mL/min/kg

---

test: Pharmacokinetics of ciprofol in rats pretreated with psoralen, clopidogrel or CMC; assay type: in vivo, rat; conditions: SD, rat, plasma, iv, 6.75 mg/kg, Clopidogrel(6.75mg/kg)group, ciprofol 2.4 mg·kg^-1 i.v.; rats No.1-8 and Mean
reported metric: Cmax (ng/mL)
// units = ng/mL; emit number, no label

Ask | Name the reported Cmax value associated with the compound `CC(C)c1cccc([C@H](C)C2CC2)c1O`
Reply | 1490
